FYI, the data here is from ChEMBL document CHEMBL3507680.

Exercise: for every item that follows, state its recorded cytotoxicity at 70.5 h.
Experiment: Human HepG2 cell viability assay in 384 well format
Assay type: toxicity, cell-based
Parameters: dose 125 nL, time 70.5 hour; concentration not given beside the values
Conditions: HepG2 cells, read-out: Inhibition
Only the number, expressed in %, is required.

Prompt: Consider the molecule `Cc1nc(CN(Cc2ccccc2F)C2CCC2)no1` . State its measured cytotoxicity at 70.5 h.
Completion: -3.66

Prompt: Consider the molecule `O=C1O[C@@H]2CN(Cc3cccc(O)c3)C[C@@H]2N1CCCN1CCOCC1` . State its measured cytotoxicity at 70.5 h.
Completion: -4.83

Prompt: Consider the molecule `Cc1cc(C(=O)N2C[C@@H]3CCCO[C@@H]3[C@H](N(C)C(C)C)C2)c(C)[nH]1` . State its measured cytotoxicity at 70.5 h.
Completion: -6.48

Prompt: Consider the molecule Cc1nc(N(C)C)nc2c1COCC21CCN(C(=O)NC(C)C)C1 (stereo unspecified) . State its measured cytotoxicity at 70.5 h.
Completion: 4.31

Prompt: Consider the molecule `COc1c(C)cnc(CN2CCC(N(C)C(=O)C3CC3)CC2)c1C` . State its measured cytotoxicity at 70.5 h.
Completion: -10.5

Prompt: Consider the molecule `O=C(CN1CCCS1(=O)=O)Nc1cccc(COC2CCCCC2)c1` . State its measured cytotoxicity at 70.5 h.
Completion: -2.5

Prompt: Consider the molecule Cc1cc(CN2CCCCC2Cn2cncn2)no1 (stereo unspecified) . State its measured cytotoxicity at 70.5 h.
Completion: -12.8

Prompt: Consider the molecule `Cc1cc(C)n(C2CN(c3nc(-c4ccncc4)nc4c3CCC4)C2)n1` . State its measured cytotoxicity at 70.5 h.
Completion: -8.99

Prompt: Consider the molecule O=C(NCc1ccc(-n2cncn2)nc1)N(CC1CCOC1)C1CC1 (stereo unspecified) . State its measured cytotoxicity at 70.5 h.
Completion: -5.41

Prompt: Consider the molecule `CCN1CCCc2cc(CN3CCc4c(nc(C)[nH]c4=O)C3)ccc21` . State its measured cytotoxicity at 70.5 h.
Completion: -3.71

Prompt: Consider the molecule `COCc1ncc(CN2CC(Oc3c(C)cccc3C)C2)cn1` . State its measured cytotoxicity at 70.5 h.
Completion: -0.994

###

Exercise: for every item that follows, state its recorded cytotoxicity at 70.5 h.
Assay: Human HepG2 cell viability assay in 384 well format
Format: toxicity, cell-based
Set-up: dose 125 nL, time 70.5 hour; concentration not given beside the values
Settings: HepG2 cells, read-out: Inhibition
Only the number, expressed in %, is required.

Prompt: Consider the compound `Fc1cccc(OC2CCN(Cc3ncc[nH]3)CC2)c1` . State its measured cytotoxicity at 70.5 h.
Completion: 18

Prompt: Consider the compound `CCCN1CCC(c2nc3ccc(NCc4ccccc4)cn3n2)CC1` . State its measured cytotoxicity at 70.5 h.
Completion: -1.96

Prompt: Consider the compound CC(C)CS(=O)(=O)CC(=O)NC1CCCCNC1=O (centres undefined) . State its measured cytotoxicity at 70.5 h.
Completion: -7.58

Prompt: Consider the compound `Cc1ccccc1C(=O)NC[C@@H]1CCN(C(=O)C2(O)CCCC2)C[C@H]1O` . State its measured cytotoxicity at 70.5 h.
Completion: -4.64

Prompt: Consider the compound CC(C)c1cc(C2CCCN2C(=O)c2cn3ccsc3n2)no1 (centres undefined) . State its measured cytotoxicity at 70.5 h.
Completion: -5.17

Prompt: Consider the compound Cc1noc(C(C)N2CCN(CCOCC(F)(F)F)CC2)n1 (centres undefined) . State its measured cytotoxicity at 70.5 h.
Completion: 27.9

Prompt: Consider the compound `Cn1cc(C[C@H]2[C@H](O)CCN2Cc2ccc3c(c2)OCO3)cn1` . State its measured cytotoxicity at 70.5 h.
Completion: 6.92

Prompt: Consider the compound `CN(C)CCN1CCO[C@H]2CN(C(=O)N(C)C)C[C@H]21` . State its measured cytotoxicity at 70.5 h.
Completion: 24.8

Prompt: Consider the compound CCN(CC1CCOC1)C(=O)Nc1ccc(N2CCCCC2)nc1 (centres undefined) . State its measured cytotoxicity at 70.5 h.
Completion: -1.47

Prompt: Consider the compound `Cc1noc(C)c1CN1C(=O)[C@H]2CC[C@@H]1CN(Cc1ccc(Cl)cc1)C2` . State its measured cytotoxicity at 70.5 h.
Completion: 8.52

Prompt: Consider the compound O=C(c1ccc(CNC2CCSC2)cc1)N1CCCC1 (centres undefined) . State its measured cytotoxicity at 70.5 h.
Completion: -0.303

Prompt: Consider the compound `Cc1ccc(CNCCCNS(C)(=O)=O)c(Br)c1` . State its measured cytotoxicity at 70.5 h.
Completion: 4

Prompt: Consider the compound O=C(NCc1nn(-c2ccccc2)c2c1CCC2)NCC1COCCO1 (centres undefined) . State its measured cytotoxicity at 70.5 h.
Completion: -9.01

Prompt: Consider the compound `O=C(NCCc1nccs1)c1n[nH]c2c1CCC2` . State its measured cytotoxicity at 70.5 h.
Completion: -11.1

Prompt: Consider the compound `CCOc1ccc(C(F)(F)F)cc1NCc1nc(C)c(C)o1` . State its measured cytotoxicity at 70.5 h.
Completion: -2.62

Prompt: Consider the compound `Cc1nc2cc(OCc3nc(C(=O)NC(CO)CO)co3)ccc2s1` . State its measured cytotoxicity at 70.5 h.
Completion: -8.5

Prompt: Consider the compound `CC(C)(C)c1ncc(CNc2ccccc2SCCC(N)=O)s1` . State its measured cytotoxicity at 70.5 h.
Completion: 3.11

Prompt: Consider the compound Cc1cccc(N2CCCC2c2nc(C)ncc2CN(C)C)n1 (centres undefined) . State its measured cytotoxicity at 70.5 h.
Completion: -4.92

Prompt: Consider the compound Cc1ccc(N2CCCC(NCc3ccc(C)s3)C2)nn1 (centres undefined) . State its measured cytotoxicity at 70.5 h.
Completion: 3.59

Prompt: Consider the compound `Cc1cc(C(=O)NCCN2CCCc3ccccc32)[nH]n1` . State its measured cytotoxicity at 70.5 h.
Completion: 22.8

Prompt: Consider the compound `Cc1n[nH]c(C)c1CCN(C)C(=O)c1ccc(CCC(C)(C)O)cc1` . State its measured cytotoxicity at 70.5 h.
Completion: -3.14

Prompt: Consider the compound `Cc1cc(Br)ccc1NCc1ccc(C(=O)N(C)C)[nH]1` . State its measured cytotoxicity at 70.5 h.
Completion: 18.2

Prompt: Consider the compound `CCN1CCn2c(C)cnc2C12CCN(C(=O)c1ccc(Cl)cc1)CC2` . State its measured cytotoxicity at 70.5 h.
Completion: -11.3

Prompt: Consider the compound Cc1nn(C)c(Cl)c1C1CCCN1C(=O)c1cc(C2CC2)on1 (centres undefined) . State its measured cytotoxicity at 70.5 h.
Completion: 3.63
